Reference source for all entries: the supplement of paper PMC9112550

Consider the following sequences; for each one, report its shrunken log2 fold change.
- Test system: Escherichia coli TOP10
- assay_explanation: shrunken log2 fold change of peptide-encoding DNA abundance (4.5 h post-induction vs induction); higher = less antimicrobial activity (less host growth inhibition)
- particulars: time post-induction: 4.5 h; library: site-saturation at positions 5, 18, 19, 20

RRIRSRPPRLPRPRPRPSEHPRP    -0.579
RRIRSRPPRLPRPRPRPENNPRP    -0.449
RRIRRRPPRLPRPRPRPKLVPRP    0.485

Each of the following entries comes with a recorded value; kindly state shrunken log2 fold change for each.
1. RRIRQRPPRLPRPRPRPCCSPRP
2. RRIRRRPPRLPRPRPRPLCGPRP

Solution:
-0.0854
0.0348

Each of the following entries comes with a recorded value; kindly state shrunken log2 fold change for each.
1. RRIRQRPPRLPRPRPRPWDWPRP
2. RRIRSRPPRLPRPRPRPTFGPRP
3. RRIRLRPPRLPRPRPRPNRMPRP

Solution:
1: 0.0372; 2: -0.0366; 3: 1.82

* * *

- System: Escherichia coli TOP10
- assay_explanation: shrunken log2 fold change of peptide-encoding DNA abundance (4.5 h post-induction vs induction); higher = less antimicrobial activity (less host growth inhibition)
- particulars: time post-induction: 4.5 h; library: site-saturation at positions 5, 18, 19, 20
Class (by shrunken log2 fold change) -- low interval (below -0.1), middle interval (-0.1 to below 0.08), high interval (0.08 or more)

RRIRARPPRLPRPRPRPEDLPRP    middle interval
RRIRFRPPRLPRPRPRPDMTPRP    middle interval
RRIRMRPPRLPRPRPRPTCYPRP    middle interval
RRIRDRPPRLPRPRPRPDLNPRP    middle interval
RRIRHRPPRLPRPRPRPTNYPRP    low interval

Problem: Which class is correct for the following sequence? RRIRPRPPRLPRPRPRPHTCPRP
Solution: low interval

Problem: Which class is correct for the following sequence? RRIRSRPPRLPRPRPRPNQHPRP
Solution: low interval

Problem: Which class is correct for the following sequence? RRIRLRPPRLPRPRPRPRFDPRP
Solution: middle interval

Problem: Which class is correct for the following sequence? RRIRGRPPRLPRPRPRPWVNPRP
Solution: middle interval

* * *

- Test system: Escherichia coli TOP10;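 also: peptides expressed intracellularly from a pBAD plasmid library in pooled LB shake-flask culture, induced with 0.3% L-arabinose, DNA abundance read by NGS, three biological replicates, DESeq2 with apeglm shrinkage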
- assay_explanation: shrunken log2 fold change of peptide-encoding DNA abundance (4.5 h post-induction vs induction); higher = less antimicrobial activity (less host growth inhibition)
- particulars: time post-induction: 4.5 h; library: site-saturation at positions 5, 18, 19, 20
Would you please tag the item yes when its shrunken log2 fold change is -0.01 or above, and no when it is below?

// known answers, use as guide
RRIRARPPRLPRPRPRPLTYPRP    yes
RRIRKRPPRLPRPRPRPFDKPRP    yes
RRIRLRPPRLPRPRPRPRGRPRP    yes
RRIRKRPPRLPRPRPRPHGAPRP    yes
RRIRHRPPRLPRPRPRPVEYPRP    no
RRIRYRPPRLPRPRPRPVTSPRP    no
RRIRFRPPRLPRPRPRPLTWPRP    no
RRIRIRPPRLPRPRPRPHILPRP    no

Please find the next sequence below.
Problem: Given the entry RRIRMRPPRLPRPRPRPNVTPRP , answer whether its shrunken log2 fold change meets or surpasses -0.01.
Solution: yes
